System: P. aeruginosa 08-05
assay.details: Combined antibacterial effect with drug efflux pump inhibitor PAβN, broth microdilution MIC
Format: cell-based
applied.conditions: P. aeruginosa 08-05, without PAβN
Overview of recorded MIC value P. aeruginosa 08-05 PAβN − for various compounds
Dear colleague, please return just the value in µg/mL, with no unit written.

CO/N=C(\C(=O)N[C@@H]1C(=O)N2C(C(=O)[O-])=C(C[N+]3(C)CCCC3)CS[C@H]12)c1csc(N)n1 [Cefepime, cefepime, reference compound] :: 8

API: value(readout= MIC value P. aeruginosa 08-05 PAβN −, system= P. aeruginosa 08-05, query= C[C@H]1COc2c(N3CCN(C)CC3)c(F)cc3c(=O)c(C(=O)O)cn1c23 [Levofloxacin, levofloxacin, reference compound] )
4

API: value(readout= MIC value P. aeruginosa 08-05 PAβN −, system= P. aeruginosa 08-05, query= CNC1CN(c2c(F)cc3c(=O)c(C(=O)O)cn(-c4cc(N)c(F)cc4CO)c3c2C)C1 [Example 70] )
1

API: value(readout= MIC value P. aeruginosa 08-05 PAβN −, system= P. aeruginosa 08-05, query= CNC1CN(c2c(F)c(C)c3c(=O)c(C(=O)O)cn(-c4cc(N)c(F)cc4CO)c3c2Cl)C1 [Example 104] )
0.5

API: value(readout= MIC value P. aeruginosa 08-05 PAβN −, system= P. aeruginosa 08-05, query= Cc1c(F)c(N2CC(N)C2)c(C)c2c1c(=O)c(C(=O)O)cn2-c1cc(N)c(F)cc1CO [Example 100] )
0.5
